Assay: soluble on expression in E. coli; label from the status in PepcDB or PDB records
measure: soluble on expression in E. coli

1. MGSDKIHHHHHHMRASSHLPQLHGRLDLTFERRRGTTRLVASEQTPPLNVSRVLRTEEVDLATVYLVETSGGVVSGDSQTIAIYVGEGARVELIPQSATKVYPSRKQGESSTQQVWLRVDEGAAAFWKPESIIPFRKASFLQSTRFHLHSSSTFFYGDMLTPGRVHHNERFQYEQVDSLVEIYLDETLVVHDRVHLQPKDQLQTIGRLDGYSYYGAVWMHAPILKGAHLEQWMENGGQNDRFAYTCVAEGLIHVRWLSESSWRLRAALNDLYTAFRTFALKGE    not soluble
2. MTIKIALLGFGTVAKGIPYLLKENQHKLLSLEGEDIVIDKVLVRDNESRQRFINQGFTYNFVTEINTILQDSQIDIVVELMGGIEPAKTYLSQALGFGKHIVTANKDLIALHGKELMDLADARGLALFYEGAVAGGIPILRTLSHSFASDKMTRLLGILNGTSNFMLTKMFEEGW    not soluble
3. MGSDKIHHHHHHMEIKILVDNTAKGKFLAQSGFSAIIKDEDSKILFDCGQNAHVFENNLKLMGEDDDFDAVIFSHGHYDHTDGFNYFIEKYGENLDVPIYIHKSAFVDRYHGERYIGIDENIKNFLKNYKNLKLIEDPFKISENLIISGTIPRTNFYERENFEMIENGQKVDDIIIDDMFVIVKDIIISGCTHSGLINCITHAKTLKEVNGIIGGFHMGTASENYINQVKNYLKTQNFRLVSPVHCTGFNATKELSDISGFKFGHVGSVFEI    not soluble

###

Experiment: soluble on expression in E. coli; label from the status in PepcDB or PDB records
measure: soluble on expression in E. coli

1) MAHHHHHHMRPGRLDKTIVVPLPDIKGRYEILKMYSSKIVLSKDVDLHVLSRRTVGMTGADLNNILNIAAIKCSVEGKKAVDMNSIEQAFDRVVVGLQRKSPLNEEEKNITAYHEGGHTLVNFYTKGSDPVHKATIMPRGMSLGVTWKIPISDKYSQKIRDVQSEIDILMGGLVSEEIIFGKNNVTTGCSSDLQRATHIAQSLVMNYGVGINEENISMFLQDKKNISEEMKIKIDKSIQRILLDSYNRAKKVLNQHIDELHRVASALVEYETLTSDEIKLAMQGKHDQIRKNRELKQKEFNLKDSRIS    not soluble
2) MNEKFRTDLAHTFGIALEEQTDVLSFHDNDGHEWILECASQSEILFFYCYLLNSESIQINSILEMNSNRELLGMFFLSLKDDNILLNIAFPADKIDITEFANLMENGYLLKNEIIRSLSSRPTDFLP    not soluble
3) MRGSHHHHHHTDPALRASSFQFEQIGVIRSPYKEKFAVPRQPGLVKSANGELHLIAPYNQADAVRGLEAFSHLWILFVFHQTMEGGWRPTVRPPRLGGNARMGVFATRSTFRPNPIGMSLVELKEVVCHKDSVILKLGSLDLVDGTPVVDIKPYLPFAESLPDASASYAQSAPAAEMAVSFTAEVEKQLLTLEKRYPQLTLFIREVLAQDPRPAYRKGEETGKTYAVWLHDFNVRWRVTDAGFEVFALEPRGLCGR    soluble
4) MERRLGVRAWVKENRGSFQPPVCNKLMHQEQLKVMFVGGPNTRKDYHIEEGEEVFYQLEGDMVLRVLEQGKHRDVVIRQGEIFLLPARVPHSPQRFANTVGLVVERRRLETELDGLRYYVGDTMDVLFEKWFYCKDLGTQLAPIIQEFFSSEQYRTGKPIPDQLLKEPPFPLSTRSIMEPMSLDAWLDSHHRELQAGTPLSLFGDTYETQVIAYGQGSSEGLRQNVDVWLWQLEGSSVVTMGGRRLSLAPDDSLLVLAGTSYAWERTQGSVALSVTQDPACKKPLGLEHHHHHH    not soluble
5) MEEPMEVDNKRPKVLTWTEKYRPKTLDDIAYQDEVVTMLKGALQGRDLPHLLFYGPPGTGKTSAALAFCRQLFPKNIFHDRVLDLNASDERGIAVVRQKIQSFSKSSLGHSHREDVLKLKIIILDEVDAMTREAQAAMRRVIEDFSKTTRFILICNYVSRLIPPVVSRCAKFRFKSLPAEIQVQRLRTICDAEGTPMSDDELKQVMEYSEGDLRRAVCTLQSLAPILKSGDDNARNCYLRGSSDSLLISNVCKSILTADVPQIIALTKDITKSCTGVAFIRRCFQQLMDEDVINDENIGVMGKLVATCEKRILDGCDLENNLLDFLLTLRETIQ    not soluble
6) MAKKVAAQIKLQLPAGKATPAPPVGPALGQHGVNIMEFCKRFNAETADKAGMILPVVITVYEDKSFTFIIKTPPASFLLKKAAGIEKGSSEPKRKIVGKVTRKQIEEIAKTKMPDLNANSLEAAMKIIEGTAKSMGIEVVD    soluble

###

Assay: soluble on expression in E. coli; label from the status in PepcDB or PDB records
measure: soluble on expression in E. coli

1) MEALKRKIEEEGVVLSDQVLKVDSFLNHQIDPLLMQRIGDEFASRFAKDGITKIVTIESSGIAPAVMTGLKLGVPVVFARKHKSLTLTDNLLTASVYSFTKQTESQIAVSGTHLSDQDHVLIIDDFLANGQAAHGLVSIVKQAGASIAGIGIVIEKSFQPGRDELVKLGYRVESLARIQSLEEGKVSFVQEVHS    soluble
2) MTYQTIVVAVDGSKEAEWALKKAIQIAKRNGAKLILSHIIDLRGFTTVEAHDYALAERSEQYANELLERYKNEAIAAGLDDVDIAVEFGSPKVKIAKDVAPKYKADLIVCGATGLNAVERLLIGSVSENIVRHAKCDVLVVRTPKE    soluble
3) MTVSLLDSSTRYHAVTALNGNVLFSGARRPMPTVMLLHTPPPEFIRSQIQQMVVDYVTDISMVAIAPGNPLYNLYQYGVGYEVHLYLNAMNGSQSLTVELIVALDDEDPETVLGFLLYLPVQDDPQACAVAYMAVLESHRCQGIARLMLDRMVSRYAHAELYCTVAKVPYFQAMGFQVLGARGPQVIMNTRDHGTDGLLAVMDIAPIYSSVEVRQIHAYLLKQHGNTAMLDAEKQRDHHLDRMTREARAFAEQHLENGDSVHGVSATVRLH    not soluble
4) MGSDKIHHHHHHMFLTKVSLLDHPESLPGYLSSLAIVEYLHEQPLEFRAPITVITGENGVGKSTLVEALAVGMRLNPSGGSRHANFGREGDIVSSLHQSLKLVRRENPRDAFFFRGETMYNVASYYEELMGEKNMHDLHKMSHGESVFAVIDRRFNNQGFFVLDEPEAGLSMLRQLELLGKLGNLARGGAQIIMATHSPILLAIPGAEILEITSSGVAKVNFEDAEAVRAAREFVADPRGTAAFLTAEEDHQ    not soluble

###

Experiment: soluble on expression in E. coli; label from the status in PepcDB or PDB records
measure: soluble on expression in E. coli

1. MSLLASLGGLVSCAAKVHFKEEGNAMNELIANHDFDFRQLVTAAEGQPVTDTFQIAKAFGKRHADVLRALKNCHCSEDFRRAHFCVSEKINNLGIFDKKQIYYRMDFSGFVMLVMGFNGAKADAVKEAYINAFNWMSAELRKYSESYEAERNAIMLEYMKEKDVASMSGRLLNRWGKIKKPQLLARIGRLEQHGQTVIPGLTNEGHHHHHH    not soluble
2. MAAQQPLSQEQLLHFWGAHNTMGKMTRRTSQSDGGKPSGNSNAAGGAGTKPKVATPQVVAKIEQYKRDNPTIFAWEIREKLISEDVCTTPPSVSSINRILRTRAAERAAEELQMILSAQHLARPRAQQVRLPPAFPFPFPLVWPGLLPNPAQLSLLLNSGALAPPVQSGGAGGPGVFGNSGQISVDSNLNLSEDDSTLGANARRLSRSTFTNEQLQSLEEVFLRDPYPSPNERADLVKRTNLPEARIQVWFSNRRAKWRKTNANGSDRDELRAERSETDDALSISSQSPSPGGGQETGSDEGKKKTITLFKPYE    not soluble

###

Test: soluble on expression in E. coli; label from the status in PepcDB or PDB records
measure: soluble on expression in E. coli

1) MSLQSSIYRIRHLAKPAYREEFKGDIECSTAAYKEVLEDTSTDSTSKLPLEAKFGKMSIIKLVLLLIISTIIYANDKNISNLHITSDSLIIDRTKQKAAYLGNVIVYFDNAILRTKELYIFYKTIDEKQTIDHIVVPTKLTVERKINNELLLADSAKYFCDNKQLILLGNVILQRDDNVLKTNKLIYYVDIIKK    not soluble
2) MWNETWNEITNELIQLSREPESEIPRITAEQRAYLKLVRPAAFVEGIAVLRVPHSRAKETIETHLGQAITSVLSRRMGRPFTVAVTVDPTLDVIQDLPHDVPEQHIVQHHVPEHPHYSPVSQGYPPHYAPEQSEYNTEYSDEYPSGWATYHVQTPQPSQSSQSAQQQPAQRMPDRRRYA    not soluble
3) MSAFQGNMFVLVNVDQHRDLIGPIINQLVADYGTPVSIVDNIQKICPKCSCTPHANPDSSSVPTTTSSDEHQEEPPTPKTIAPAPIATPVLKPLLPQRESIVSNGIHPVVVKRKQSIAEEIDTPEIKKSRVVEPVKVKTETIILDDDDGNVLDTVLAALQNGNHEMQFTGSGGSSDDGASNSSNIYDVDDEDYGTSQWNPDFLTNFITSQPNIFSVTGQNIKSSPSKNAGQTPNGKRQVPPMLTVNGKTRRGRIVYSTQELNILEKYYEEDPNACADPRKRETMCKTLSIDYHRLKVWFQNRRRKDKVRSQEEAATTFNGLDYSEDS    not soluble
